# Experimental System: human Claudin-6 (CLDN6) (human) (UniProt P56747)
# Assay Name: FACS, limiting dilution, UMUC4 cells
Property Name: FACS signal at 200 nM
I'd appreciate a reply containing only the number, no unit.

INSERT INTO assay_data (binder, result_value) VALUES
  ('AB3-7 (antibody, V domains shown, humanized; also called AB23; humanized AB3-7) VH: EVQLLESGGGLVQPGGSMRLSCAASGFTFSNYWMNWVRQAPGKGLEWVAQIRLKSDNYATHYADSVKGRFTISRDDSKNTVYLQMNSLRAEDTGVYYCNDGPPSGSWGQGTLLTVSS VL: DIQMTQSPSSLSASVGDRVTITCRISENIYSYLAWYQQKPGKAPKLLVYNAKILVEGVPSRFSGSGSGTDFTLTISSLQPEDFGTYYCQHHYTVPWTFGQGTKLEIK', 2110);

Okay, now this binder:
For AB1-11 (antibody, V domains shown, humanized; also called humanized AB1-11; HU-11) VH: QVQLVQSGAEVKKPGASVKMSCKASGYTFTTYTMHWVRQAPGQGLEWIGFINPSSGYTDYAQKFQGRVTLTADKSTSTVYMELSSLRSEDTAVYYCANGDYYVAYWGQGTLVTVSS VL: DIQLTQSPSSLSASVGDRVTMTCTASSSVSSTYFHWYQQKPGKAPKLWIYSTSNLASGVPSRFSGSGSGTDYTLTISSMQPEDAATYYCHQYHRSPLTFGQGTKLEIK the binder record lists FACS signal at 200 nM as 25700
